The measured values listed here are drawn from patent US5109003A.

Reported Ulcer index values follow for various compounds
# System: stress-induced gastric ulcer
# experiment: Protective effect on gastric ulcer induced by restraint plus water-immersion stress in rats
# Type: in vivo, rat (male Sprague-Dawley)
# condition.context: 10 mg/kg p.o.; control distilled water (26.0 ± 2.2 mm); mean ± S.E.

compound=CCOCCn1c(=O)c2c(ncn2CCCCC(C)(C)O)n(C)c1=O recorded_endpoint="Ulcer index" reported="17.8 ± 3.3 mm"

Which Ulcer index is listed for CCCn1cnc2c1c(=O)n(CCCCC(C)(C)O)c(=O)n2CC ?
8.7 ± 1.6 mm

Which Ulcer index is listed for CCOCn1cnc2c1c(=O)n(CCCCC(C)(C)O)c(=O)n2CC ?
6.9 ± 2.1 mm

Which Ulcer index is listed for CCCn1cnc2c1c(=O)n(CCCCC(C)=O)c(=O)n2C [Compound 22, reference compound] ?
18.4 ± 3.0 mm

Which Ulcer index is listed for C=CCn1cnc2c1c(=O)n(CCCCC(C)(C)O)c(=O)n2C ?
10.6 ± 3.0 mm

Which Ulcer index is listed for CCCn1c(=O)c2c(ncn2CCCCC(C)(C)O)n(C)c1=O ?
12.1 ± 2.9 mm

Which Ulcer index is listed for C=CCn1cnc2c1c(=O)n(CCCCC(C)(C)O)c(=O)n2CC ?
10.2 ± 2.4 mm

Which Ulcer index is listed for CCCn1cnc2c1c(=O)n(CCCC(C)(C)O)c(=O)n2CC ?
12.8 ± 2.5 mm

Which Ulcer index is listed for CCn1cnc2c1c(=O)n(CCCCC(C)(C)O)c(=O)n2CC ?
6.8 ± 1.6 mm

====

# System: ethanol-induced gastric ulcer
# experiment: Protective effect on ethanol-induced gastric ulcer in rats
# Type: in vivo, rat (male Sprague-Dawley)
# condition.context: Rattus norvegicus, po, 1 h; 10 mg/kg p.o.; listed under control 10% EtOH
recorded.endpoint: inhibition in vivo at 10 mg/kg (%)
Record the value in %, omitting the unit from your answer.

Worked cases, answers included:
compound="CCCn1cnc2c1c(=O)n(CCCCC(C)=O)c(=O)n2C [Compound 22, reference compound]" recorded_endpoint="inhibition in vivo at 10 mg/kg" reported=62.7
compound=CCCCn1cnc2c1c(=O)n(CCCCC(C)(C)O)c(=O)n2CC recorded_endpoint="inhibition in vivo at 10 mg/kg" reported=83.5
compound=CCCn1cnc2c1c(=O)n(CCCCCC(C)(C)O)c(=O)n2CC recorded_endpoint="inhibition in vivo at 10 mg/kg" reported=95.3

Which inhibition in vivo at 10 mg/kg is listed for CCn1c(=O)n(CCCCCC(C)(C)O)c(=O)c2c1ncn2C(C)C ?
94.7

====

# experiment: in vivo
# condition.context: mouse, ip, mice, i.p., read-out: LD50 (intraperitoneal)
recorded.endpoint: LD50

Worked cases, answers included:
compound=C=CCCn1cnc2c1c(=O)n(CCCCC(C)(C)O)c(=O)n2C reported="150 to 300 mg/kg"
compound="CCCn1cnc2c1c(=O)n(CCCC(C)(O)CC)c(=O)n2C (centres unmarked)" reported="300 to 600 mg/kg"
compound=CCCn1cnc2c1c(=O)n(CCCCCC(C)(C)O)c(=O)n2C reported="150 to 300 mg/kg"
compound=CCn1c(=O)n(CCCCCC(C)(C)O)c(=O)c2c1ncn2C(C)C reported="> 600 mg/kg"

Now look at this one.
Which LD50 is listed for CCCCn1cnc2c1c(=O)n(CCCCC(C)(C)O)c(=O)n2CC ?
> 600 mg/kg
